Values compiled from patent US10385065B2.

The molecules below have reported MIC for Haemophilus influenzae ATCC 49247.
Property Measured: MIC

| Molecule | Assay System | Measured |
| --- | --- | --- |
| Cc1c(-c2ccc(N)cc2)ccc2c3ocnc3c(=O)n(C3CC3)c12 | Haemophilus influenzae ATCC 49247 | 1 to 10 µg/mL |
| CN(C)C1CCN(c2nc3c(cc2F)c2ocnc2c(=O)n3C2CC2)C1 (stereo not shown) | Haemophilus influenzae ATCC 49247 | 10 to 100 µg/mL |
| C[C@H]1COc2c(-c3cc(F)c(N)cc3F)ccc3c4ocnc4c(=O)n1c23 | Haemophilus influenzae ATCC 49247 | < 1 µg/mL |
| CCn1c(=O)c2ncoc2c2ccc(-c3cc(F)c(N)cc3F)c(C)c21 | Haemophilus influenzae ATCC 49247 | 10 to 100 µg/mL |
| Cc1nc2c(=O)n(C3CC3)c3c(C)c(-c4cc(F)c(C(N)=O)cc4F)ccc3c2o1 | Haemophilus influenzae ATCC 49247 | 1 to 10 µg/mL |
| Cc1c(-c2cnc(N)cn2)ccc2c3ocnc3c(=O)n(C3CC3)c12 | Haemophilus influenzae ATCC 49247 | > 100 µg/mL |
| NC1CCN(c2nc3c(cc2F)c2ocnc2c(=O)n3C2CC2)C1 (stereo not shown) | Haemophilus influenzae ATCC 49247 | 10 to 100 µg/mL |
| C[C@H]1COc2c(-c3cnc(N)nc3)ccc3c4ocnc4c(=O)n1c23 | Haemophilus influenzae ATCC 49247 | 1 to 10 µg/mL |
| Cc1nc2c(=O)n3c4c(c(N5CC[C@@H](CN)C5)c(F)cc4c2o1)OC[C@@H]3C | Haemophilus influenzae ATCC 49247 | 1 to 10 µg/mL |
| O=c1c2ncoc2c2cc(F)c(-c3ccncc3Cl)cc2n1C1CC1 | Haemophilus influenzae ATCC 49247 | 1 to 10 µg/mL |
| Cc1c(-c2ccc3[nH]cnc3c2)ccc2c3ocnc3c(=O)n(C3CC3)c12 | Haemophilus influenzae ATCC 49247 | 1 to 10 µg/mL |
| Cc1nc2c(=O)n(C3CC3)c3c(C)c(-c4ccc(CN)c(F)c4)ccc3c2o1 | Haemophilus influenzae ATCC 49247 | 1 to 10 µg/mL |
| Cc1c(-c2ccc(N)cc2F)ccc2c3ocnc3c(=O)n(C3CC3)c12 | Haemophilus influenzae ATCC 49247 | < 1 µg/mL |
| Cc1nc2c(=O)n3c4c(c(N5CCN(C)CC5)c(F)cc4c2o1)OC[C@@H]3C | Haemophilus influenzae ATCC 49247 | 1 to 10 µg/mL |
| CCn1c(=O)c2ncoc2c2cc(F)c(-c3cc(N)c(F)cc3F)c(C)c21 | Haemophilus influenzae ATCC 49247 | 10 to 100 µg/mL |
| Cc1nc2c(=O)n(C3CC3)c3c(C)c(-c4ccc(N)c(F)c4)ccc3c2o1 | Haemophilus influenzae ATCC 49247 | > 100 µg/mL |
| Cc1c(-c2cc(F)c(N)cc2F)ccc2c3oc(=O)[nH]c3c(=O)n(C3CC3)c12 | Haemophilus influenzae ATCC 49247 | 1 to 10 µg/mL |
| Cc1c(-c2cc(F)c(CO)cc2F)ccc2c3ocnc3c(=O)n(C3CC3)c12 | Haemophilus influenzae ATCC 49247 | < 1 µg/mL |
| Cc1nc2c(=O)n(C3CC3)c3cc(N4CC[C@@H](C(C)(C)N)C4)c(F)cc3c2o1 | Haemophilus influenzae ATCC 49247 | 10 to 100 µg/mL |
| Cc1nc2c(=O)n(C3CC3)c3c(C)c(-c4cnc(C(C)(C)O)nc4)ccc3c2o1 | Haemophilus influenzae ATCC 49247 | 10 to 100 µg/mL |
| Cc1nc2c(=O)n(C3CC3)c3cc(-c4ccncc4)c(F)cc3c2o1 | Haemophilus influenzae ATCC 49247 | 1 to 10 µg/mL |
| Cc1c(-c2cnoc2)ccc2c3ocnc3c(=O)n(C3CC3)c12 | Haemophilus influenzae ATCC 49247 | 10 to 100 µg/mL |
| Cc1c(-c2cc(F)c(N)cc2F)ccc2c3oc(CN(C)C)nc3c(=O)n(C3CC3)c12 | Haemophilus influenzae ATCC 49247 | 1 to 10 µg/mL |
| Cc1c(-c2ccc(C(=O)O)cc2)ccc2c3oc(CN)nc3c(=O)n(C3CC3)c12 | Haemophilus influenzae ATCC 49247 | 10 to 100 µg/mL |
| CCOC(=O)c1ccc(-c2cc3c(cc2F)c2ocnc2c(=O)n3C2CC2)cc1 | Haemophilus influenzae ATCC 49247 | > 100 µg/mL |
| Cc1nc2c(=O)n(C3CC3)c3c(C)c(-c4cc(F)c(CO)cc4F)ccc3c2o1 | Haemophilus influenzae ATCC 49247 | 1 to 10 µg/mL |
| Cc1nc2c(=O)n(C3CC3)c3cc(N4CC[C@H](CN)C4)c(F)cc3c2o1 | Haemophilus influenzae ATCC 49247 | 1 to 10 µg/mL |
| Nc1ccc(-c2cc3c(cc2F)c2ocnc2c(=O)n3C2CC2)cc1F | Haemophilus influenzae ATCC 49247 | < 1 µg/mL |
| Cc1nc2c(=O)n(C3CC3)c3cc(-c4cc(F)c(C(N)=O)cc4F)c(F)cc3c2o1 | Haemophilus influenzae ATCC 49247 | 10 to 100 µg/mL |
| COc1c(N2CCC(N)C2)c(F)cc2c3ocnc3c(=O)n(C3CC3)c12 (stereo not shown) | Haemophilus influenzae ATCC 49247 | 1 to 10 µg/mL |
| Cc1nc2c(=O)n(C3CC3)c3c(C)c(-c4cc(F)c(O)cc4F)ccc3c2o1 | Haemophilus influenzae ATCC 49247 | 1 to 10 µg/mL |
| Cc1c(-c2ccc3[nH]ncc3c2)ccc2c3ocnc3c(=O)n(C3CC3)c12 | Haemophilus influenzae ATCC 49247 | < 1 µg/mL |
| CC(=O)c1ccc(-c2ccc3c4ocnc4c(=O)n(C4CC4)c3c2C)nc1 | Haemophilus influenzae ATCC 49247 | > 100 µg/mL |
| CCOC(=O)CNC(=O)c1ccc(-c2ccc3c4ocnc4c(=O)n(C4CC4)c3c2C)cc1 | Haemophilus influenzae ATCC 49247 | 1 to 10 µg/mL |
